Tested on: KM12
Assay: Cytotoxicity against human KM12 cells assessed as cell growth at 10 uM
Format: functional
Conditions: Homo sapiens, KM12; read-out: Activity
Exercise: for every item that follows, state its recorded growth at 10 µM.
Give bare numbers, in %.

A selection of reference data follows.
{"smiles-str": "FC(F)(F)c1cc(Nc2nccc(-c3ccc(Nc4ccccc4)nc3)n2)cc(C(F)(F)F)c1", "growth at 10 µM, %": 112}
{"smiles-str": "FC(F)(F)c1cc(Nc2nccc(-c3ccc(-c4ccccc4)nc3)n2)cc(C(F)(F)F)c1", "growth at 10 µM, %": 105}
{"smiles-str": "Cc1ccc(Nc2nc(C)cc(-c3cccnc3)n2)c(C)c1", "growth at 10 µM, %": 98.7}
{"smiles-str": "Cc1cc(-c2cccnc2)nc(NC(=O)c2cccc(C(F)(F)F)c2)n1", "growth at 10 µM, %": 109}
{"smiles-str": "c1ccc(-c2ccc(-c3ccnc(Nc4ccc(N(c5ccccc5)c5ccccc5)cc4)n3)cn2)cc1", "growth at 10 µM, %": 97}

**Query** Find the recorded growth at 10 µM belonging to FC(F)(F)c1cc(Nc2nccc(-c3cccnc3)n2)cc(C(F)(F)F)c1 and report it.
**Result** 103

###

Tested on: MOLT-4
Test: Cytotoxicity against human MOLT4 cells assessed as cell growth at 10 uM
Assay type: functional
Conditions: Homo sapiens, MOLT-4; read-out: Activity
experimental-readout: growth at 10 µM
Report as: number unit

{"smiles-str": "CC(=O)c1ccccc1-c1ccc(-c2ccnc(NC(=O)Nc3cc(C(F)(F)F)cc(C(F)(F)F)c3)n2)cn1", "growth at 10 µM": "88.3%"}
{"smiles-str": "c1ccc(-c2ccc(-c3ccnc(Nc4ccc(N(c5ccccc5)c5ccccc5)cc4)n3)cn2)cc1", "growth at 10 µM": "91.2%"}
{"smiles-str": "FC(F)(F)c1cc(Nc2nccc(-c3ccc(Nc4ccccc4)nc3)n2)cc(C(F)(F)F)c1", "growth at 10 µM": "87.6%"}
{"smiles-str": "CC(=O)c1ccc(-c2ccc(-c3ccnc(Nc4cc(C(F)(F)F)cc(C(F)(F)F)c4)n3)cn2)cc1", "growth at 10 µM": "91%"}

**Query** Find the recorded growth at 10 µM belonging to Cc1ccc(Nc2nc(C)cc(-c3cccnc3)n2)c(C)c1 and report it.
**Result** 91.4%
